The measurements presented in this section are drawn from paper PMC9865629.

Measured Target: α-glucosidase
Protocol Summary: α-glucosidase inhibition assay
Format: biochemical
Particulars: pure compound and standard
Property Label: pIC50
Remember the convention: pIC50 equals -log10 of concentration in molar.

Tell me reported pIC50 for COc1cc(C[C@@H]2CO[C@@H](c3ccc(O)c(OC)c3)[C@@H]2COC(=O)c2ccccc2)ccc1O [Compound 1] , tested with α-glucosidase.
4.57

====

Measured Target: butyrylcholinesterase (BuChE) (Homo sapiens, UniProt P06276)
Sequence (P06276 29-602): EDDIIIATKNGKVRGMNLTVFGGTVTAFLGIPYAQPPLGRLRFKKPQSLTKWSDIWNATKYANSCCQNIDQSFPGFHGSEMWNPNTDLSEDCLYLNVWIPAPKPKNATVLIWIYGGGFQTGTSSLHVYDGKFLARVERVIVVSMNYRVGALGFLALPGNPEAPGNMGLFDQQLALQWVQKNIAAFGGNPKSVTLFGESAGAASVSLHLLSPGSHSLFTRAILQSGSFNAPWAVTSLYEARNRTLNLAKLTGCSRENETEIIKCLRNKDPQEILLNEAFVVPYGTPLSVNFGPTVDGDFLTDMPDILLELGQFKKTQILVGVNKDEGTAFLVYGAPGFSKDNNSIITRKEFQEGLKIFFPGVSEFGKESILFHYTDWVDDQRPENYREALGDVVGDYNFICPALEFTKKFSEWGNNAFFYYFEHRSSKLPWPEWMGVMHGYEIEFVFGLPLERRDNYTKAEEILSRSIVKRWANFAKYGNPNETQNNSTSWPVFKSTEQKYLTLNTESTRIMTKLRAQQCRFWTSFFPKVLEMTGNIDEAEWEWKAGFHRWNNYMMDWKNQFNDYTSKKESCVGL
Property Label: pIC50
Field pIC50 (float): negative decimal logarithm of the concentration in molar.

pIC50 lookup needed for COc1cc(C[C@@H]2CO[C@@H](c3ccc(O)c(OC)c3)[C@@H]2COC(=O)c2ccccc2)ccc1O , thanks.
4.98
